- assay.info: in vivo
- condition.notes: rat
measurement.label: concentration at 4 h (ng/g)
Please respond with the number in ng/g and leave the unit unwritten.

Request: Item under review: CN(C)c1cc(NC(=O)CNC(C)(C)C)c(O)c2c1C[C@H]1C[C@H]3[C@H](N(C)C)C(O)=C(C(N)=O)C(=O)[C@@]3(O)C(O)=C1C2=O [tigecycline, Tigecycline] . Reported concentration at 4 h?
Response: 3190

----------
- assay.info: Antibiotic bone assay (LC/MS/MS): tigecycline concentration in incurred rat bone
- Assay type: in vivo
- condition.notes: rat, femoral bone (pooled, ground), intravenous, 3 mg/kg, IncRB Group B extract used for the bioassay; read-out: Concentration of tigecycline in extracted rat bone sample as determined by LC/MS
measurement.label: concentration at 4 h (ng/g)
Unit ng/g implied. Number only.

Request: Consider the compound shown here: CN(C)c1cc(NC(=O)CNC(C)(C)C)c(O)c2c1C[C@H]1C[C@H]3[C@H](N(C)C)C(O)=C(C(N)=O)C(=O)[C@@]3(O)C(O)=C1C2=O [tigecycline, Tigecycline] What is its recorded concentration at 4 h?
Response: 3400

----------
- assay.info: Antibiotic bone assay (LC/MS/MS): tigecycline concentration in incurred rat bone
- Assay type: in vivo
- condition.notes: rat, femoral bone (pooled, ground), intravenous, 3 mg/kg, Group A, single dose 3 mg/kg, Day 1, 4 hour; measured concentration divided by 0.771; read-out: Corrected Mean Conc. in rat bone
measurement.label: concentration at 4 h (ng/g)
Express your answer in ng/g, writing the number without its unit.

Request: # input compound: CN(C)c1cc(NC(=O)CNC(C)(C)C)c(O)c2c1C[C@H]1C[C@H]3[C@H](N(C)C)C(O)=C(C(N)=O)C(=O)[C@@]3(O)C(O)=C1C2=O ; wanted: its concentration at 4 h
Response: 1360
